biological target: Transcription factor p65 (Human); assay: Inhibition of NF-kappaB in human HEK293 cells
Sequence (Q04206 whole entry): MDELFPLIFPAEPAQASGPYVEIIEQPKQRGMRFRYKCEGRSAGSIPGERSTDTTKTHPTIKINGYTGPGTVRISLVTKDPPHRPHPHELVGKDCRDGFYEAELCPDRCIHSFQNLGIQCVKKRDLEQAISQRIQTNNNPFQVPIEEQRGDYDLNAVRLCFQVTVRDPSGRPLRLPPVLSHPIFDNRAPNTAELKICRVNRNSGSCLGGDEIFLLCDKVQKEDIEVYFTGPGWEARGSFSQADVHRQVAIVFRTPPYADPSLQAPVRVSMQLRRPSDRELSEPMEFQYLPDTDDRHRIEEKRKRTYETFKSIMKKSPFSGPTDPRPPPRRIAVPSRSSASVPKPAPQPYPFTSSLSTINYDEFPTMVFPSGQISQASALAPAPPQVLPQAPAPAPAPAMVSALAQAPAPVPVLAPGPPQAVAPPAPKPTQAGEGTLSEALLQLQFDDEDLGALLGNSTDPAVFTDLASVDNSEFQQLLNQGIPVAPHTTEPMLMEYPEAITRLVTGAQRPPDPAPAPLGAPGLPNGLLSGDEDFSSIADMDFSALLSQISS
Metric: IC50 (nM)

Chemical Structure: CCCCCCCCCCS(=O)(=O)NCCCNCCCCNCCCN
Assay Target: Transcription factor p65 (Human)
Unit Of Measurement: nM
IC50: 310

I. CCCCCCCCCCCCCCCCCCS(=O)(=O)NCCCNCCCCNCCCN
II. CCCCCCCCCCCCCCCCS(=O)(=O)NCCCNCCCCNCCCN
III. CCCCCCCCCCCCS(=O)(=O)NCCCNCCCCNCCCN
Falling order of IC50, please. Hello, could you send the labels back in the order asked? Thank you.
I, III, II
(I: 2100 nM, III: 340 nM, II: 230 nM)
